ASSAYED_TARGET: T1, polypeptide GC3pep (human)
T1 construct: also called membrane proximal polypeptide GC3pep
T1 peptide: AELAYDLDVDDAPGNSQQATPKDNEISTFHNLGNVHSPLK
ASSAY_COMMENT: ELISA, GC3pep coated, antibody 0.1 nM;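 further: antibody allowed to bind the coated plate 2 h at 37 °C, then detected via HRP-conjugated secondary antibody and TMB development for 10 min, stopped with HCl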
MEASUREMENT_LABEL: OD450 nm (OD450 nm)
Hi! Could you send only the number? It should be in OD450 nm, unit omitted.

>  <BINDER>
F1.62.9 (antibody, human IgG1, kappa, V domains shown, human-murine chimeric antibody) VH: QVQLQQSDAELVKPGASVKISCKVSGYIFTDHTIHWMKQRPEQGLEWIGYIYPRDGSIKYNENFKGKATLTADKSSSATYMQLNSLTSEDSAVYFCARPIYYDYAYYFDYWGQGTTLTVSS VL: DVVMTQSPLSLPVSLGDQASISCRSRQSLVHSNGNTYLHWYLQKPGQSPKVLIYKVSNRFSGVPDRFSGSGSGTDFTLKISRVEAEDLGVYFCSQSTHVPYTFGGGTKLEIKR

>  <OD450 nm [OD450 nm]>
0.05

$$$$

For the binder shown here, F1.120.16 (antibody, human IgG1, kappa, V domains shown, human-murine chimeric antibody) VH: EFQLQQSGPELVKPGASVKISCKASGYSFTDYNMNWVKQSNGKSLEWIGLIHPKFSVTSYNRKFKGKATLTVDQSSSTAYMQLNSLTSEDSAVYYCARWAGDYFDYWGQGTTLTVSS VL: DIVLTQSPATLSVTPGDSVSLSCRASQSISNNLHWYQQKSHESPRLLIKYASQSISGIPSRFSGSGSGTDFTLTINSVETEDFGMYFCQQSNSWPQTFGGGTKLEIKR , give the reported OD450 nm.
0.04

For the binder shown here, F4.18.4 (antibody, human IgG1, kappa, V domains shown, human-murine chimeric antibody) VH: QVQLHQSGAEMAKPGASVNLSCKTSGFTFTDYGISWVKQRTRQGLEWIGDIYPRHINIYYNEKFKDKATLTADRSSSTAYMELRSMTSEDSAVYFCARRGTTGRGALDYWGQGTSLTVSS VL: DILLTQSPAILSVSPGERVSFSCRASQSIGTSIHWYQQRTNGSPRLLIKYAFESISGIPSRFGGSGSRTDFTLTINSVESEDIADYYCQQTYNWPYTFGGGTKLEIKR , give the reported OD450 nm.
0.03

For the binder shown here, F1.92.17 (antibody, human IgG1, kappa, V domains shown, human-murine chimeric antibody) VH: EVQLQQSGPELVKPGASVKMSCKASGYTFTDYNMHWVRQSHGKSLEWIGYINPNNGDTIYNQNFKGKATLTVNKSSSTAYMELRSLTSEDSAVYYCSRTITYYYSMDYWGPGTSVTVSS VL: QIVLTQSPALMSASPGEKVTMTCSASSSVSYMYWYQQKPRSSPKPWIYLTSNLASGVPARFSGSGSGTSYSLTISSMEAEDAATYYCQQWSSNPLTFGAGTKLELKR , give the reported OD450 nm.
0.06

For the binder shown here, F4.26.1 (antibody, human IgG1, kappa, V domains shown, human-murine chimeric antibody) VH: QVQLKQSGPGLVQPSQSLSITCTVSGFSLTSYGVHWVRQSPGKGLEWLGVIWSSGNTDYNAVLISRLSIKKDDSKSQVFFKMNSPQVDDSAIYYCGRNGGWLLRGFMDFWGQGTSVTVSS VL: DVVMTQTPLSLPVSLGDQASISCRSSQSLLHSNGNTYLHWYLQRSGQSPNLLIYKVSNRFSGVPDRFSGGGSGTDFTLKISRVEAEDLGIYFCSQSTHVPWTFGGGTKLEIKR , give the reported OD450 nm.
0.08
